From: PubChem BioAssay AID1224920

- System: Clostridium difficile clinical isolate growth, OD600, 24 h
- test details: growth modulation of Clostridium difficile isolate – OD600, 9-point, retest, dose response (AID 1224920);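 active = IC50 no higher than ten times the top tested dose; inconclusive = flat fit with 30 to 70% inhibition, or poor fit; inactive = IC50 above ten times the top dose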;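 note: inhibitors lower culture turbidity so OD600 falls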
The reply should be one of these categories: true = active, false = inactive

# count of solved cases: 3
compound	assayed target	cat
O=C(c1ccc(F)cc1)N1C[C@@H]2N[C@H](C1)C2c1ccc(/C=C/c2ccccc2)cc1 (some centres not stated)	Clostridium difficile clinical isolate growth, OD600, 24 h	true
Cc1cccc(-c2ccc([C@H]3[C@H](CO)N4CCCCN(CCC(F)(F)F)C[C@@H]34)cc2)c1	Clostridium difficile clinical isolate growth, OD600, 24 h	true
Cc1ccccc1-c1ccc([C@H]2[C@@H](CO)N3CCCCN(C(=O)Nc4cccc(F)c4)C[C@H]23)cc1	Clostridium difficile clinical isolate growth, OD600, 24 h	true

-- ask // return assay outcome for CCNC(=O)C[C@H]1CC[C@@H]2[C@H](COC[C@H](O)CN2C(=O)Nc2ccc(C(F)(F)F)cc2)O1
-- reply true

-- ask // return assay outcome for Cc1ccc(-c2ccc([C@H]3[C@H](CO)N4CCCCN(C(=O)Nc5cccc(F)c5)C[C@@H]34)cc2)cc1
-- reply true

-- ask // return assay outcome for COc1ccccc1NC(=O)N1CCCCN2[C@H](CO)[C@H](c3ccc(-c4ccc(C)cc4)cc3)[C@H]2C1
-- reply true

###

- Tested on: Clostridium difficile clinical isolate growth, OD600, 24 h
- test details: growth modulation of Clostridium difficile isolate – OD600, 9-point, retest, dose response (AID 1224920);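 note: inhibitors lower culture turbidity so OD600 falls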
experimental endpoint: IC50

Some entries whose results are on file:
molecule	IC50
O=C(NC[C@H]1N[C@H](CO)[C@@H]1c1ccc(C2=CCCC2)cc1)c1ccccc1	69.4 µM
Cc1ccccc1-c1ccc(C2[C@@H]3CN(C(=O)Nc4cccc(F)c4)C[C@H]2N3)cc1 (stereo partly drawn)	39 µM
O=C(C[C@H]1CC[C@H]2[C@@H](COC[C@@H](O)CN2C(=O)Nc2ccc(C(F)(F)F)cc2)O1)NC1Cc2ccccc2C1	16.6 µM
COc1cccc(-c2ccc(C3[C@@H]4CN(S(=O)(=O)Cc5ccccc5)C[C@H]3N4)cc2)c1 (stereo partly drawn)	52.6 µM
Cc1ccccc1-c1ccc(C2[C@@H]3CN(C(=O)C4CCCCC4)C[C@H]2N3)cc1 (stereo partly drawn)	60.7 µM
Cc1ccc(-c2ccc([C@H]3[C@@H](CO)N4CCCCN(S(=O)(=O)c5cccc(C)c5)C[C@H]34)cc2)cc1	13.7 µM

-- ask Given C/C=C/c1ccc(C2[C@H]3CNC[C@@H]2N3Cc2cc(-c3ccccc3)on2)cc1 (stereo partly drawn) , report its IC50 on Clostridium difficile clinical isolate growth, OD600, 24 h.
-- reply 32.7 µM

-- ask Given CCCC#Cc1ccc([C@H]2[C@@H](CO)N3CCCCN(S(=O)(=O)Cc4ccccc4)C[C@H]23)cc1 , report its IC50 on Clostridium difficile clinical isolate growth, OD600, 24 h.
-- reply 34.2 µM

###

- test details: growth modulation of Clostridium difficile isolate – OD600, 9-point, retest, dose response (AID 1224920);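 note: inhibitors lower culture turbidity so OD600 falls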;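 for activity change, negative = inhibition: plate controls were DMSO for no effect and levofloxacin control for full effect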
- stated conditions: Clostridium difficile clinical isolate growth, OD600, 24 h; at 30 µM (top of the series)
experimental endpoint: activity change, negative = inhibition (%)
Number only, in %; omit the unit.

smiles	uom	activity change, negative = inhibition
CCC(=O)N1CC(=O)N2[C@H](CO)[C@@H](c3ccc(C#CC4CCCCC4)cc3)[C@@H]2C1	%	-9.02
O=C(Nc1ccccc1)N1CCCCN2[C@H](CO)[C@H](c3ccc(-c4ccccc4F)cc3)[C@H]2C1	%	38.6
COc1ccc(NC(=O)N2CCCCN3[C@@H](CO)[C@@H](c4ccc(-c5ccccc5C)cc4)[C@@H]3C2)cc1	%	48
Cc1cccc(-c2ccc([C@@H]3[C@@H](CO)N4CCCCN(CCC(F)(F)F)C[C@@H]34)cc2)c1	%	25

Then this compound:
-- ask // Input: COc1cccc(-c2ccc3c(c2)[C@@H]2[C@@H](CCN2Cc2ccccc2OC)[C@@H](CO)N3)c1 . Output its activity change, negative = inhibition only.
-- reply -7.43

###

- Test system: Clostridium difficile clinical isolate growth, OD600, 24 h
- test details: growth modulation of Clostridium difficile isolate – OD600, 9-point, retest, dose response (AID 1224920);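 note: inhibitors lower culture turbidity so OD600 falls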
experimental endpoint: pIC50
Please report pIC50 as the negative decimal logarithm of the molar concentration, giving only the number.

Some entries whose results are on file:
molecule	pIC50
COc1ccccc1NC(=O)N1CCCCN2[C@@H](CO)[C@H](c3ccc(-c4cccc(C)c4)cc3)[C@@H]2C1	4.03
Cc1ccccc1-c1ccc(C2[C@@H]3CN(C(=O)NC4CCCCC4)C[C@H]2N3)cc1 (stereo partly drawn)	4.24
N#Cc1cccc(-c2ccc(C3[C@H]4CNC[C@@H]3N4Cc3cccc(F)c3)cc2)c1 (stereo partly drawn)	4.25
Cc1ccc(-c2ccc([C@@H]3[C@@H](CO)N4CCCCN(S(=O)(=O)c5cccc(C)c5)C[C@H]34)cc2)cc1	4.97

-- ask // Input: COc1cccc(-c2ccc(C3[C@H]4CNC[C@@H]3N4Cc3ccc4c(c3)OCO4)cc2)c1 (stereo partly drawn) . Output its pIC50 only.
-- reply 4.52

-- ask // Input: Cc1ccc(-c2ccc([C@H]3[C@@H](CO)N4CCCCN(C(=O)Nc5ccccc5)C[C@H]34)cc2)cc1 . Output its pIC50 only.
-- reply 4.42

-- ask // Input: O=C(C[C@@H]1CC[C@@H]2[C@H](COC[C@H](O)CN2C(=O)Nc2cc(Cl)cc(Cl)c2)O1)N1CCOCC1 . Output its pIC50 only.
-- reply 4.69

-- ask // Input: O=C(C[C@H]1CC[C@@H]2[C@H](COC[C@H](O)CN2C(=O)Nc2ccc(C(F)(F)F)cc2)O1)NC1Cc2ccccc2C1 . Output its pIC50 only.
-- reply 4.44

###

As shown below, each of these compounds has a reported IC50 value.
- Test system: Clostridium difficile clinical isolate growth, OD600, 24 h
- test details: growth modulation of Clostridium difficile isolate – OD600, 9-point, retest, dose response (AID 1224920);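 note: inhibitors lower culture turbidity so OD600 falls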

Some entries whose results are on file:
compound	IC50
COc1ccccc1-c1ccc(C2[C@@H]3CN(Cc4cccc(F)c4)C[C@H]2N3)cc1 (stereo partly drawn)	6.88 µM
O=C(C[C@H]1CC[C@H]2[C@@H](COC[C@H](O)CN2C(=O)Nc2ccc(C(F)(F)F)cc2)O1)NCC1CCCCC1	7.15 µM
O=C(Nc1ccccc1)N1C[C@@H]2N[C@H](C1)C2c1ccc(-c2ccccc2F)cc1 (stereo partly drawn)	52.3 µM
N#Cc1ccc(-c2ccc([C@@H]3[C@H]4CNC[C@@H]3N4Cc3cc(F)ccc3F)cc2)cc1	58.8 µM
OC[C@H]1[C@@H](c2ccc(-c3ccc(F)cc3)cc2)[C@@H]2CN(CCC(F)(F)F)CCCCN12	72.8 µM
O=C(Nc1ccc(F)cc1)N1CCCCN2[C@@H](CO)[C@@H](c3ccc(-c4cccc(F)c4)cc3)[C@@H]2C1	13.2 µM
CC(C)CC#Cc1ccc([C@H]2[C@H](CO)N3CCCCN(C(=O)Nc4ccccc4)C[C@@H]23)cc1	11.1 µM

Then this compound:
-- ask // Input: CCCNC(=O)C[C@@H]1CC[C@H]2[C@@H](COC[C@@H](O)CN2C(=O)Nc2ccc(Cl)c(Cl)c2)O1 . Output its IC50 only.
-- reply 8.45 µM

###

- Tested on: Clostridium difficile clinical isolate growth, OD600, 24 h
- test details: growth modulation of Clostridium difficile isolate – OD600, 9-point, retest, dose response (AID 1224920);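 note: inhibitors lower culture turbidity so OD600 falls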
experimental endpoint: IC50

Some entries whose results are on file:
compound	IC50
COc1ccccc1S(=O)(=O)N1[C@@H]2CNC[C@H]1C2c1ccc(/C=C/c2ccccc2)cc1 (some centres not stated)	63.2 µM
O=C(C[C@H]1CC[C@H]2[C@@H](COC[C@@H](O)CN2C(=O)Nc2ccc(Cl)c(Cl)c2)O1)NC1CCC1	19.4 µM

-- ask // Input: C/C=C/c1ccc(C2[C@H]3CNC[C@@H]2N3C(=O)Nc2cccc(Cl)c2)cc1 (some centres not stated) . Output its IC50 only.
-- reply 54.4 µM

-- ask // Input: COc1ccc(C#Cc2ccc([C@H]3[C@H](CO)N4CCCCN(Cc5ccccc5F)C[C@@H]34)cc2)cc1 . Output its IC50 only.
-- reply 11 µM

###

- System: Clostridium difficile clinical isolate growth, OD600, 24 h
- test details: growth modulation of Clostridium difficile isolate – OD600, 9-point, retest, dose response (AID 1224920);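 note: inhibitors lower culture turbidity so OD600 falls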
Calls of active or inactive are those of the source.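 Rule for the calls: active = IC50 no higher than ten times the top tested dose; inconclusive = flat fit with 30 to 70% inhibition, or poor fit; inactive = IC50 above ten times the top dose.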
The reply should be one of these categories: true (active), false (inactive)

# count of solved cases: 5
compound	cat
O=C(NC[C@@H]1N[C@@H](CO)[C@H]1c1ccc(C2=CCCCC2)cc1)c1ccc(F)cc1	true
O=C(c1ccc(F)cc1)N1CC(=O)N2[C@H](CO)[C@H](c3ccc(C#CCC4CCCC4)cc3)[C@H]2C1	true
O=C(C1CCCCC1)N1CC[C@@H]2[C@H]1c1cc(C#Cc3ccc(F)cc3)ccc1N[C@@H]2CO	true
OC[C@@H]1Nc2ccc(C#Cc3cccc(F)c3)cc2[C@H]2NCC[C@@H]12	true
COc1cccc(CN2C[C@@H]3N[C@H](C2)C3c2ccc(-c3ccccc3OC)cc2)c1 (some centres not stated)	true

-- ask // return assay outcome for CCNC(=O)C[C@H]1CC[C@H]2[C@@H](COC[C@@H](O)CN2C(=O)Nc2ccc(C(F)(F)F)cc2)O1
-- reply true

-- ask // return assay outcome for O=C(C1CCCCC1)N1C[C@@H]2N[C@H](C1)C2c1ccc(-c2ccccc2F)cc1 (some centres not stated)
-- reply true

-- ask // return assay outcome for N#C[C@@H]1[C@@H](c2ccc(C#Cc3cccnc3)cc2)[C@@H](CO)N1C(=O)NC1CCCC1
-- reply false

-- ask // return assay outcome for OC[C@@H]1[C@H](c2ccc(-c3ccccc3)cc2)[C@@H]2CN(CCC(F)(F)F)CCCCN12
-- reply true

-- ask // return assay outcome for COc1cccc(-c2ccc(C3[C@@H]4CN(S(=O)(=O)c5ccccc5C)C[C@H]3N4)cc2)c1 (some centres not stated)
-- reply true

-- ask // return assay outcome for O=C(Nc1cccc(F)c1)N1CCCCN2[C@H](CO)[C@H](c3ccc(C#CC4CC4)cc3)[C@H]2C1
-- reply true

-- ask // return assay outcome for O=S(=O)(Cc1ccccc1)N1CCCCN2[C@@H](CO)[C@@H](c3ccc(-c4ccc(F)cc4)cc3)[C@@H]2C1
-- reply true

-- ask // return assay outcome for Cc1ccc(-c2ccc([C@@H]3[C@H](CO)N4CCCCN(S(=O)(=O)c5cccc(C)c5)C[C@@H]34)cc2)cc1
-- reply true

-- ask // return assay outcome for O=S(=O)(Cc1ccccc1)N1CCCCN2[C@H](CO)[C@@H](c3ccc(C#Cc4ccccc4)cc3)[C@H]2C1
-- reply false

-- ask // return assay outcome for COc1cccc(CN2[C@@H]3CNC[C@H]2C3c2ccc(-c3ccccc3C)cc2)c1 (some centres not stated)
-- reply true

-- ask // return assay outcome for COc1ccc(C#Cc2ccc([C@H]3[C@H](CO)N4CCCCN(C(=O)Nc5ccc(F)cc5)C[C@@H]34)cc2)cc1
-- reply true

-- ask // return assay outcome for Fc1cccc(CN2[C@@H]3CNC[C@H]2C3c2ccc(-c3cccc(F)c3)cc2)c1 (some centres not stated)
-- reply true

-- ask // return assay outcome for Fc1cccc(CN2C[C@@H]3N[C@H](C2)[C@@H]3c2ccc(-c3cccc(F)c3)cc2)c1
-- reply true

-- ask // return assay outcome for Cc1ccccc1-c1ccc([C@H]2[C@H](CO)N3CCCCN(C(=O)Nc4cccc(F)c4)C[C@@H]23)cc1
-- reply true

-- ask // return assay outcome for Cc1ccccc1-c1ccc(C2[C@@H]3CN(S(=O)(=O)c4ccccc4C)C[C@H]2N3)cc1 (some centres not stated)
-- reply true

-- ask // return assay outcome for COc1cccc(S(=O)(=O)N2[C@@H]3CNC[C@H]2C3c2ccc(/C=C/c3ccccc3)cc2)c1 (some centres not stated)
-- reply true
